Where these numbers come from: patent US11447493B2

Some compounds, each annotated with its measured IC50.
# TARGET SYSTEM: CDK12 wt/CycK (Homo sapiens (Human), UniProt Q9NYV4)
# Sequence (Q9NYV4 whole entry): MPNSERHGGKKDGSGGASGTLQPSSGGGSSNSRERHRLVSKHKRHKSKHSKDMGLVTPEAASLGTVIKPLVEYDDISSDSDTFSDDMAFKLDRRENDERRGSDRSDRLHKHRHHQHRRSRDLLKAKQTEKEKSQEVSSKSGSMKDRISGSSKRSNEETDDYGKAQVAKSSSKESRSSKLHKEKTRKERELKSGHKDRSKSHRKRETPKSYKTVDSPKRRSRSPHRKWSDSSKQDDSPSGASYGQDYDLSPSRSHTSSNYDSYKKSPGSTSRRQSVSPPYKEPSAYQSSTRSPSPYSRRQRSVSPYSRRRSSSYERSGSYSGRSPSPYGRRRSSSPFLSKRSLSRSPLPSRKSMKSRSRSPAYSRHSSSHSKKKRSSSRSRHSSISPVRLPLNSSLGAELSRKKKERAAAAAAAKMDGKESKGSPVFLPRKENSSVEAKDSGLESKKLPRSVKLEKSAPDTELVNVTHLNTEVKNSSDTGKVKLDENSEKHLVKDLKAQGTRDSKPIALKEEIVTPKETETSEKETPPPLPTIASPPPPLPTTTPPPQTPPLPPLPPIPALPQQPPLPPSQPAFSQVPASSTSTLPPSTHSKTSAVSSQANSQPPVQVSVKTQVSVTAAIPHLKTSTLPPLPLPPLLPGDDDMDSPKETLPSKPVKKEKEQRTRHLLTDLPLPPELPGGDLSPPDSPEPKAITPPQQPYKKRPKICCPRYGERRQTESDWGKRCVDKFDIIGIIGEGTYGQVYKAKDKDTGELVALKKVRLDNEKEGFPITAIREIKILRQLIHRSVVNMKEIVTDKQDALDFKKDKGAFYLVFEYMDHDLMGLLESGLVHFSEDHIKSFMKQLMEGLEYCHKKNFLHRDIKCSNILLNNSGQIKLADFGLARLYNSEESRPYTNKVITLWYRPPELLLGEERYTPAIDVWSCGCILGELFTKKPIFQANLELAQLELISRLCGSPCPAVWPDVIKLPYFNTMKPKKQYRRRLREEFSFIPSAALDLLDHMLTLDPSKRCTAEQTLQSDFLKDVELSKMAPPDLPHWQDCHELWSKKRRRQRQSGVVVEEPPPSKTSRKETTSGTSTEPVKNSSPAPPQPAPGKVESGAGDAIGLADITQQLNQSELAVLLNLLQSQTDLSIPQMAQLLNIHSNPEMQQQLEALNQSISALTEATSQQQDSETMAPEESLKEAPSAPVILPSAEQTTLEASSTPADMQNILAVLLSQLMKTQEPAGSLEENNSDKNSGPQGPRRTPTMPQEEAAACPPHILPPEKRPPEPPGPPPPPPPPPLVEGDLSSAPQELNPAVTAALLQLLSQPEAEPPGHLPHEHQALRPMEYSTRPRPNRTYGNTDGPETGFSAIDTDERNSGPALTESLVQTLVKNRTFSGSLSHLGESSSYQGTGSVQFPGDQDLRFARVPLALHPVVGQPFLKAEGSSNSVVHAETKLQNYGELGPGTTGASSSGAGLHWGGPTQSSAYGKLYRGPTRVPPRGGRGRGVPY
# Sequence (O75909 whole entry partner): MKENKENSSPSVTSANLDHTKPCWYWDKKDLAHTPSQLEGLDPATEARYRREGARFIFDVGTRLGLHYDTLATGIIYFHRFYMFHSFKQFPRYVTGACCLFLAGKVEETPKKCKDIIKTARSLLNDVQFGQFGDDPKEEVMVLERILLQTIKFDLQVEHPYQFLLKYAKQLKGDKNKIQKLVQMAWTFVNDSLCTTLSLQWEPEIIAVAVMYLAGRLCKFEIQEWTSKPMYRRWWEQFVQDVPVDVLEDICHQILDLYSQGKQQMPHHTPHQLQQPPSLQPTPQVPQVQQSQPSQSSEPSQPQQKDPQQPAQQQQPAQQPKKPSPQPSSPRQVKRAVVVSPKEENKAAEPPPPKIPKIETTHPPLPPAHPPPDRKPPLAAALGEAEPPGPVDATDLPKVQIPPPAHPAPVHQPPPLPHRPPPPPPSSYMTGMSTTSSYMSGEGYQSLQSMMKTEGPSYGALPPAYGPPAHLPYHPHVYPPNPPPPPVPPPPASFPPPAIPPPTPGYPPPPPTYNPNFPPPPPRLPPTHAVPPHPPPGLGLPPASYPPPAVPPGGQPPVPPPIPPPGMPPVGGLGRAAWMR
# PROCEDURE SUMMARY: Radiometric protein kinase assay (33PanQinase), Assay Condition A (thiol containing)
# SETTINGS: thiol containing (1.2 mM DTT), ATP 0.3 μM

Please review the entries below; each comes with its answer.
C=CC(=O)Nc1ccc(C(=O)N2CCC[C@@H](Nc3ncc4cc(Cl)ccc4n3)C2)cc1 [Example 3]: 1 to 10 µM
CCC(=O)Nc1ccc(C(=O)N2CC[C@@H](Nc3ncc4ccncc4n3)C2)cc1 [Example 50]: 0.1 to 1 µM
C=CC(=O)Nc1ccc(C(=O)N2CC[C@@H](Nc3ncc4ccccc4n3)C2)c(OC)c1 [Example 73]: 0.1 to 1 µM
CCC(=O)Nc1ccc(C(=O)N2CC[C@@H](Nc3ncc4cc(F)ccc4n3)C2)cc1 [Example 46]: 0.1 to 1 µM
C=CC(=O)Nc1cccc(C(=O)N2CC[C@@H](Nc3ncc4ccccc4n3)C2)c1 [Example 87]: 0.1 to 1 µM
CCC(=O)Nc1ccc(C(=O)N2CCC[C@@H](Nc3ncc4cc(Cl)ccc4n3)C2)cc1 [Example 19]: 30 to 100 µM
C=CC(=O)Nc1ccc(C(=O)N2CC(Nc3ncc4ccccc4n3)C2)cc1 [Example 64]: 1 to 10 µM

Summary for this compound, C=CC(=O)Nc1ccc(C(=O)N2CCC[C@@H](Nc3ncc4ccc(C)cc4n3)C2)cc1 [Example 9] : IC50 is 10 to 30 µM

====

# TARGET SYSTEM: CDK7/CycH/MAT1 (Homo sapiens (Human), UniProt P50613)
# Sequence (P50613 whole entry): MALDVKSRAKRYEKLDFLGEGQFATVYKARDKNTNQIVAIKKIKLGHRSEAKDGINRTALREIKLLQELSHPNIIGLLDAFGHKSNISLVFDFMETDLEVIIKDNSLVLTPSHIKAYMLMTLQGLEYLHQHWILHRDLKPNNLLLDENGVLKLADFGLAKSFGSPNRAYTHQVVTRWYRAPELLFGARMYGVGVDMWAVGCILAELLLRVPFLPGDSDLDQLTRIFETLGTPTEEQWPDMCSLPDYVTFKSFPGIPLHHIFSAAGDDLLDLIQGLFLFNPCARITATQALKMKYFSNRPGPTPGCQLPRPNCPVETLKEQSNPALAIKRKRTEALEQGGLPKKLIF
# Sequence (P51946 whole entry partner): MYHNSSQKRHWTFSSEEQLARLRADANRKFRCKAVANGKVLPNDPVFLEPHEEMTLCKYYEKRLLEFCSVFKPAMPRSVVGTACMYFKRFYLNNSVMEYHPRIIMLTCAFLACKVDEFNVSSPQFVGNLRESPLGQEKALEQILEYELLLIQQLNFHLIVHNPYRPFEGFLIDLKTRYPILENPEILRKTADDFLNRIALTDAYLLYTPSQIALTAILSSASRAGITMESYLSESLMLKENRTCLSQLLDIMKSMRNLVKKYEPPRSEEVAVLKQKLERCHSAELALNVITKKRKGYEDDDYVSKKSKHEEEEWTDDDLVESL
# Sequence (P51948 whole entry partner): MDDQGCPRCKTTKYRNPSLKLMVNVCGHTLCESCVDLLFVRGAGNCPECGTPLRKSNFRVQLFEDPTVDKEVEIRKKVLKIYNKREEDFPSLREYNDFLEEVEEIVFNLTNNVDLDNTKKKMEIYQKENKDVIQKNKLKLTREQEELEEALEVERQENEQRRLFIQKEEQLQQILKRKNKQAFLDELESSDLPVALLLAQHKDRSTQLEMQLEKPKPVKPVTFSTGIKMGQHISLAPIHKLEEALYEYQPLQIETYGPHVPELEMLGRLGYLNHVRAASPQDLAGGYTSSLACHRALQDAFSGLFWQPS
# PROCEDURE SUMMARY: Radiometric protein kinase assay (33PanQinase), Assay Condition A (thiol containing)
# SETTINGS: thiol containing (1.2 mM DTT), ATP 3.0 μM
# Experimental: The IC50 profile of test compounds was determined using three protein kinases. The compounds were provided as pre-weighed powders in vials. The compounds were dissolved to 1×10^−02M by adding DMSO. 100 μl of each of the resulting stock solutions were transferred into column 2 of four 96 well “master plates”. […] The reaction cocktails were incubated at 30° C. for 60 minutes. […] Incorporation of ^33Pi was determined with a microplate scintillation counter (Microbeta, Wallac). […]
pIC50: −log10 of the molar value.
Some compounds, each annotated with its measured pIC50.

C=CC(=O)Nc1ccc(C(=O)N2CC[C@@H](Nc3ncc4ccc(F)cc4n3)C2)cc1: 5.00 to 6.00
C=CC(=O)Nc1ccc(C(=O)N2CCC[C@@H](Nc3ncc4ccc(C(N)=O)cc4n3)C2)cc1: 4.52 to 5.00
C=CC(=O)Nc1cccc(C(=O)N2CC[C@@H](Nc3ncc4ccccc4n3)C2)c1: 6.00 to 7.00

Summary for this compound, C=CC(=O)Nc1ccc(C(=O)N2CC[C@@H](Nc3ncc4ccc(C(=O)NC)cc4n3)C2)cc1 [Example 40] : pIC50 is 6.00 to 7.00

====

# TARGET SYSTEM: CDK12 wt/CycK (Homo sapiens (Human), UniProt Q9NYV4)
# PROCEDURE SUMMARY: Radiometric protein kinase assay (33PanQinase), Assay Condition A (thiol containing)
# SETTINGS: thiol containing (1.2 mM DTT), ATP 0.3 μM
PROPERTY LABEL: IC50

Please review the entries below; each comes with its answer.
CCC(=O)Nc1ccc(C(=O)N2CC[C@@H](Nc3ncc4ccc(C(=O)N(C)C)cc4n3)C2)cc1: ≤ 0.1 µM
CCC(=O)Nc1ccc(C(=O)N2CCC[C@@H](Nc3ncc4ccc(F)cc4n3)C2)cc1: 30 to 100 µM
COc1cc(C(=O)N2CC[C@@H](Nc3ncc4ccccc4n3)C2)ccc1NC(=O)/C=C/CN(C)C: 0.1 to 1 µM
CCC(=O)Nc1ccc(C(=O)N2CC[C@@H](Nc3ncc4ccc(S(C)(=O)=O)cc4n3)C2)cc1: 0.1 to 1 µM

Moving on to the next molecule.
Summary for this molecule, CN(C)C/C=C/C(=O)Nc1ccc(C(=O)N2CC[C@@H](Nc3ncc4ccccc4n3)C2)cc1 : IC50 is 0.1 to 1 µM

====

# TARGET SYSTEM: CDK7/CycH/MAT1 (Homo sapiens (Human))
# PROCEDURE SUMMARY: Radiometric protein kinase assay (33PanQinase), Assay Condition A (thiol containing)
# SETTINGS: thiol containing (1.2 mM DTT), ATP 3.0 μM
# Experimental: The IC50 profile of test compounds was determined using three protein kinases. The compounds were provided as pre-weighed powders in vials. The compounds were dissolved to 1×10^−02M by adding DMSO. 100 μl of each of the resulting stock solutions were transferred into column 2 of four 96 well “master plates”. […] The reaction cocktails were incubated at 30° C. for 60 minutes. […] Incorporation of ^33Pi was determined with a microplate scintillation counter (Microbeta, Wallac). […]
PROPERTY LABEL: IC50

CCC(=O)Nc1ccc(C(=O)N2CC[C@@H](Nc3ncc4ccc(C#N)cc4n3)C2)cc1: 1 to 10 µM
CCC(=O)Nc1ccc(C(=O)N2CC[C@@H](Nc3ncc4cc(Cl)ccc4n3)C2)cc1: 1 to 10 µM

Summary for this compound, CCC(=O)Nc1ccc(C(=O)N2CCC[C@@H](Nc3ncc4ccc(Cl)cc4n3)C2)cc1 : IC50 is 30 to 100 µM

Summary for this compound, C=CC(=O)Nc1ccc(C(=O)N2CCC[C@@H](Nc3ncc4ccc(F)cc4n3)C2)cc1 : IC50 is 30 to 100 µM

Summary for this compound, C=CC(=O)Nc1ccc(C(=O)N2CC(Nc3ncc4ccccc4n3)C2)cc1 : IC50 is 10 to 30 µM

Summary for this compound, C=CC(=O)Nc1ccc(C(=O)N2CC[C@@H](Nc3ncc4cc(OC)ccc4n3)C2)cc1 : IC50 is 30 to 100 µM

Summary for this compound, CCC(=O)Nc1ccc(C(=O)N2CC[C@@H](Nc3ncc4ccncc4n3)C2)cc1 : IC50 is 1 to 10 µM

Summary for this compound, CCC(=O)Nc1ccc(C(=O)N2CC[C@@H](Nc3ncc4ccc(C(=O)O)cc4n3)C2)cc1 : IC50 is 0.1 to 1 µM

Summary for this compound, CCC(=O)Nc1ccc(C(=O)N2CCC[C@@H](Nc3cc4ccccc4cn3)C2)cc1 : IC50 is 30 to 100 µM

Summary for this compound, CCC(=O)Nc1ccc(C(=O)N2CC[C@@H](Nc3ncc4ccc(=O)[nH]c4n3)C2)cc1 : IC50 is 1 to 10 µM

Summary for this compound, C=CC(=O)Nc1ccc(C(=O)N2CCC[C@@H](Nc3ncc4cc(OC)ccc4n3)C2)cc1 : IC50 is 30 to 100 µM

Summary for this compound, C=CC(=O)Nc1ccc(C(=O)N2CC[C@@H](Nc3ncc4ccccc4n3)C2)c(C)c1 : IC50 is 1 to 10 µM

Summary for this compound, CN(C)C/C=C/C(=O)N1CCOc2cc(C(=O)N3CC[C@@H](Nc4ncc5ccccc5n4)C3)ccc21 : IC50 is 0.1 to 1 µM

Summary for this compound, C=CC(=O)Nc1ccc(C(=O)N2CC[C@@H](Nc3ncc4ccccc4n3)C2)cc1C : IC50 is 1 to 10 µM

Summary for this compound, CCC(=O)Nc1ccc(C(=O)N2CC[C@@H](Nc3ncc4ccc(C(N)=O)cc4n3)C2)cc1 : IC50 is ≤ 0.1 µM

Summary for this compound, C=CC(=O)Nc1ccc(C(=O)N2CCC[C@@H](Nc3cc4ccccc4cn3)C2)cc1 : IC50 is 30 to 100 µM

====

# TARGET SYSTEM: CDK12 wt/CycK (Homo sapiens (Human), UniProt Q9NYV4)
# PROCEDURE SUMMARY: Radiometric protein kinase assay (33PanQinase), Assay Condition A (thiol containing)
# SETTINGS: thiol containing (1.2 mM DTT), ATP 0.3 μM
pIC50: −log10 of the molar value.
Some compounds, each annotated with its measured pIC50.

Please review the entries below; each comes with its answer.
C=CC(=O)Nc1ccc(C(=O)N2CCC[C@@H](Nc3ncc4ccc(C(=O)O)cc4n3)C2)cc1: 6.00 to 7.00
C=CC(=O)Nc1c(C)cc(C(=O)N2CC[C@@H](Nc3ncc4ccccc4n3)C2)cc1F: 5.00 to 6.00
C=CC(=O)Nc1ccc(C(=O)N2CC[C@@H](Nc3ncc4ccc(Cl)cc4n3)C2)cc1: 6.00 to 7.00
C=CC(=O)Nc1ccc(C(=O)N2CC[C@@H](Nc3ncc4c(F)cccc4n3)C2)cc1: 6.00 to 7.00
C=CC(=O)Nc1ccc(C(=O)N2CC[C@@H](Nc3ncc4ccc(=O)[nH]c4n3)C2)cc1: ≥ 7.00

Moving on to the next compound.
Summary for this compound, C=CC(=O)Nc1ccc(C(=O)N2CC[C@@H](Nc3ncc4cc(F)ccc4n3)C2)cc1 : pIC50 is ≥ 7.00

====

# TARGET SYSTEM: CDK7/CycH/MAT1 (Homo sapiens (Human), UniProt P50613)
# PROCEDURE SUMMARY: Radiometric protein kinase assay (33PanQinase), Assay Condition A (thiol containing)
# SETTINGS: thiol containing (1.2 mM DTT), ATP 3.0 μM
PROPERTY LABEL: IC50

Please review the entries below; each comes with its answer.
CCC(=O)Nc1ccc(C(=O)N2CC[C@@H](Nc3ncc4ccc(Cl)cc4n3)C2)cc1 [Example 53]: 1 to 10 µM
C=CC(=O)Nc1ccc(C(=O)N2CC[C@@H](Nc3ncc4ccccc4n3)C2)cn1 [Example 67]: 0.1 to 1 µM
C=CC(=O)Nc1ccc(C(=O)N2C[C@H](Nc3ncc4ccccc4n3)[C@@H](C)C2)cc1 [Example 96]: 10 to 30 µM
C=CC(=O)Nc1ccc(C(=O)N2CCC[C@@H](Nc3ncc4ccc(=O)n(C(C)C)c4n3)C2)cc1 [Example 15]: 30 to 100 µM

Moving on to the next compound.
Sample C=CC(=O)Nc1ccc(C(=O)N2C[C@H](Nc3ncc4ccccc4n3)[C@@H](F)C2)cc1 [Example 63] , system: CDK7/CycH/MAT1 (Homo sapiens (Human), UniProt P50613). Its IC50 is 1 to 10 µM
